# TEST PROTOCOL: Elimination half life in CD1 albino mouse plasma at 20 mg/kg, ip
# Type: ADME, organism-based
# Design: dose 20 mg/kg, route intraperitoneal
# CONDITION SUMMARY: read-out: beta t1/2
ASSAY METRIC: half-life (min)
Your answer is read as min, so omit the unit and give the number.

half-life for N[C@@H](CN1CCN(c2nc3cc(F)ccc3n3cccc23)CC1)C(=O)O is 53

###

# TEST PROTOCOL: Plasma concentration in CD1 albino mouse at 5 mg/kg, ip after 15 mins
# Type: ADME, organism-based
# Parameters: dose 5 mg/kg, route intraperitoneal
ASSAY METRIC: concentration at 0.25 h (nM)
Write the value in nM as a bare number.

Record N[C@@H](CN1CCN(c2nc3cc(F)ccc3n3cccc23)CC1)C(=O)O . Reported concentration at 0.25 h: 2000

###

# EXPERIMENTAL SYSTEM: 5-hydroxytryptamine receptor 1A (Rattus norvegicus, UniProt P19327)
# Sequence (P19327 whole entry): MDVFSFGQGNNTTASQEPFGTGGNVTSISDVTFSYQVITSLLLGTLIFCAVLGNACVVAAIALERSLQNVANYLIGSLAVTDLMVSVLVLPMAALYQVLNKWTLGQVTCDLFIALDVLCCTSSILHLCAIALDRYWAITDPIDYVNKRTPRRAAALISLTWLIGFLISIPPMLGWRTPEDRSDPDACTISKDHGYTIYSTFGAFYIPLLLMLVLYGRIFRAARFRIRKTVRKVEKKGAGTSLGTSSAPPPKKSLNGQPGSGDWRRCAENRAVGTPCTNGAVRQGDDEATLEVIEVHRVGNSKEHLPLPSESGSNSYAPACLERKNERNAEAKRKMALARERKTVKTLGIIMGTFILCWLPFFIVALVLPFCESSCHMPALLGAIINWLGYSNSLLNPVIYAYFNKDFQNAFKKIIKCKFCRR
ASSAY METRIC: pKi
Formally, pKi is defined as -log10 of the concentration c, with c in mol/L.

Use the examples below as a reference point.
>>> experimental_value("CN1CCN(c2nc3cc(F)ccc3n3cccc23)CC1")
6.86
>>> experimental_value("N[C@@H](CN1CCN(c2nc3cc(F)ccc3n3cccc23)CC1)C(=O)O")
6.35

Then this compound:
pKi for N[C@H](CN1CCN(c2nc3cc(F)ccc3n3cccc23)CC1)C(=O)O is 6.32

###

# EXPERIMENTAL SYSTEM: 5-hydroxytryptamine receptor 3A (Cavia porcellus) (UniProt O70212)
# Sequence (whole entry): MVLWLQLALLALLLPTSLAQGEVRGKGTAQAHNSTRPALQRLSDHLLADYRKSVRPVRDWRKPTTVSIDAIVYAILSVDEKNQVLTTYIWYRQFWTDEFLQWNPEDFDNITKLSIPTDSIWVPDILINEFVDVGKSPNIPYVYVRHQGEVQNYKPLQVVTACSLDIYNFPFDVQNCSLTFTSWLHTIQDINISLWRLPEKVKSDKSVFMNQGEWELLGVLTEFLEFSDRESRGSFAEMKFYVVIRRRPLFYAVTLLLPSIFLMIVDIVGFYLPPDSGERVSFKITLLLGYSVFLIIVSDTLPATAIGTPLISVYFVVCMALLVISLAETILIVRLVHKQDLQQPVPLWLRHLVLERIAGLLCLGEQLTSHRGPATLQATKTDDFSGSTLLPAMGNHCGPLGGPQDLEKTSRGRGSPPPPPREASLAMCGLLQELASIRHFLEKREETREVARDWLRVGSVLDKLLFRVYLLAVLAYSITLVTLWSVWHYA
# TEST PROTOCOL: Agonist activity at 5HT3 receptor in spontaneously beating guinea pig right atrium assessed as positive chronotropic potency
# Assay type: functional, tissue-based
# CONDITION SUMMARY: Cardiac atrium
Here, each record is paired with measured pD2 data.
Please respond with just the number, no unit label.

>>> experimental_value("CN1CCN(c2nc3cc(F)ccc3n3cccc23)CC1")
6.79
>>> experimental_value("N[C@@H](CN1CCN(c2nc3cc(F)ccc3n3cccc23)CC1)C(=O)O")
5.98
>>> experimental_value("NCCc1c[nH]c2ccc(O)cc12")
5.78

Here is another compound to look at.
Observed pD2, 5-hydroxytryptamine receptor 3A (Cavia porcellus) (UniProt O70212), Cc1[nH]c2ccc(O)cc2c1CCN : 5.06

###

# TEST PROTOCOL: Clearance in CD1 albino mouse plasma at 20 mg/kg, ip
# Format: ADME, organism-based
# Design: dose 20 mg/kg, route intraperitoneal
ASSAY METRIC: CL/F (mL/min/kg)
Write the value in mL/min/kg as a bare number.

Memo: N[C@@H](CN1CCN(c2nc3cc(F)ccc3n3cccc23)CC1)C(=O)O , reported CL/F: 90

###

# EXPERIMENTAL SYSTEM: 5-hydroxytryptamine receptor 3A (Rattus norvegicus, UniProt P35563)
# Sequence (P35563 whole entry): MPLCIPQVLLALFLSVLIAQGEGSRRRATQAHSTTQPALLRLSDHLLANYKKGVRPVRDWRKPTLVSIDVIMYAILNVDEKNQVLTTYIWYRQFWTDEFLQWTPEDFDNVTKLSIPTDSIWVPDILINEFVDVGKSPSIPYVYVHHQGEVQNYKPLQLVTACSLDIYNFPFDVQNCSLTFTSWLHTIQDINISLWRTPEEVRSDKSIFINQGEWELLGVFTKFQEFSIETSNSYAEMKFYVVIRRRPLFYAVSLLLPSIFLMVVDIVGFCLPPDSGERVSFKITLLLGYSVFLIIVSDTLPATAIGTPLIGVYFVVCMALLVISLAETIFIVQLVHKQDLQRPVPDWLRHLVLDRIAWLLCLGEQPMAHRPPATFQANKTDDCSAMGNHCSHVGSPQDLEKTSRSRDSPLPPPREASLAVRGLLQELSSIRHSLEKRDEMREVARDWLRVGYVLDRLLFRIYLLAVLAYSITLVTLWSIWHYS
# TEST PROTOCOL: Displacement of [3H]LY278584 from 5HT3 receptor in rat cortical homogenate
ASSAY METRIC: pKi
In simple prose, pKi is minus the logarithm base ten of a concentration in moles per litre.

# example entries with known answers
>>> experimental_value("CN1CCN(c2nc3cc(F)ccc3n3cccc23)CC1")
9.10
>>> experimental_value("O=c1[nH]nc(CN2CCN(c3nc4cc(F)ccc4n4cccc34)CC2)[nH]1")
7.77
>>> experimental_value("Fc1ccc2c(c1)nc(N1CCN(Cc3nnc[nH]3)CC1)c1cccn12")
8.47
>>> experimental_value("Fc1ccc2c(c1)nc(N1CCN(Cc3nnn[nH]3)CC1)c1cccn12")
7.19

Would you kindly look at the next entry?
pKi reading for NC(CO)C(=O)N1CCN(c2nc3cc(F)ccc3n3cccc23)CC1 (single isomer, unassigned) : 6.63

###

# EXPERIMENTAL SYSTEM: UniProt:P14842
# Sequence (P14842 whole entry): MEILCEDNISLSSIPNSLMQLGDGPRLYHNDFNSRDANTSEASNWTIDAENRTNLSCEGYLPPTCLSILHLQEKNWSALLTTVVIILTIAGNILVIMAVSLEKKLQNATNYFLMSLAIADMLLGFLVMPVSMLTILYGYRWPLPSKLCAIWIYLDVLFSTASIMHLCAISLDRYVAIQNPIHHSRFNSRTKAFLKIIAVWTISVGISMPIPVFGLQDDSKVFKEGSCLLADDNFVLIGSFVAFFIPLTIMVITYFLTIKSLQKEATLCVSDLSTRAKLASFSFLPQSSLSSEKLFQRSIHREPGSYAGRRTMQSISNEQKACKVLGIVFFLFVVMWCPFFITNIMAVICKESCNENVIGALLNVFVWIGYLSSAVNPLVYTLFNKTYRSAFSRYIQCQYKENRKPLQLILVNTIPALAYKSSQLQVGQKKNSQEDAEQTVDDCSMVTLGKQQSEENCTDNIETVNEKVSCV
ASSAY METRIC: Ki (µM)
# value in µM; strip the unit string

>>> experimental_value("N[C@@H](CN1CCN(c2nc3cc(F)ccc3n3cccc23)CC1)C(=O)O")
5.69

Okay, next one:
Lab entry: UniProt:P14842 assay, compound CN1CCN(c2nc3cc(F)ccc3n3cccc23)CC1 , Ki = 0.124

###

# EXPERIMENTAL SYSTEM: 5-hydroxytryptamine receptor 3A (Rattus norvegicus)
# TEST PROTOCOL: Displacement of [3H]LY278584 from 5HT3 receptor in rat cortical homogenate
ASSAY METRIC: Ki

# annotated cases, reported Ki shown
>>> experimental_value("Cc1cccc2nc(N3CCN(C(C(=O)O)c4ccccc4)CC3)c3cccn3c12 (stereo unspecified)")
"44 nM"
>>> experimental_value("O=c1[nH]nc(CN2CCN(c3nc4cc(F)ccc4n4cccc34)CC2)o1")
"127 nM"
>>> experimental_value("NC(=O)CN1CCN(c2nc3cc(F)ccc3n3cccc23)CC1")
"7.3 nM"
>>> experimental_value("Cc1cccc2nc(N3CCN(CC(=O)NO)CC3)c3cccn3c12")
"3 nM"
>>> experimental_value("Cc1cccc2nc(N3CCN(C(CO)c4ccccc4)CC3)c3cccn3c12 (stereo unspecified)")
"79 nM"

API: the following record is the query input.
# compound N/C(CN1CCN(c2nc3cc(F)ccc3n3cccc23)CC1)=N\O ; its Ki = 0.8 nM

###

# EXPERIMENTAL SYSTEM: UniProt:P35563
# Sequence (P35563 whole entry): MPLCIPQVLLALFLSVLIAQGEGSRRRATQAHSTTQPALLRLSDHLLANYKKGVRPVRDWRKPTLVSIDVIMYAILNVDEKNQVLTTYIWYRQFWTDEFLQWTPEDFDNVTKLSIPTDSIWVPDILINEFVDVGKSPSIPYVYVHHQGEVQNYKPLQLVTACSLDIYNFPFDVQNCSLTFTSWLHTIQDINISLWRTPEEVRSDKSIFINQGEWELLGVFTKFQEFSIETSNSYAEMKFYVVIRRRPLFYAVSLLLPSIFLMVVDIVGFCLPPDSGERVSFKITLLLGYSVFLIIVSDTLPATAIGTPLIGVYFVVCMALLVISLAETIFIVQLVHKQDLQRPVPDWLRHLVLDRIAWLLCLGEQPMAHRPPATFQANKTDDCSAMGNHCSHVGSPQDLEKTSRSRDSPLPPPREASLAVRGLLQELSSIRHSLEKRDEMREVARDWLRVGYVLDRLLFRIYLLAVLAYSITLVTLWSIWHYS
# TEST PROTOCOL: Displacement of [3H]zacopride from 5HT3 receptor in rat cortex
ASSAY METRIC: pKi
API: returns pKi as number; meaning -log10 of concentration in mol/L.

# annotated cases, reported pKi shown
>>> experimental_value("CN1CCN(c2nc3cc(O)ccc3n3cccc23)CC1")
9.15
>>> experimental_value("Cc1cccc2nc(N3CCN(C)CC3)c3cccn3c12")
9.10

Could you now consider this next compound?
For the compound Fc1ccc2c(c1)nc(N1CCN(Cc3ccccc3)CC1)c1cccn12 , the measured pKi on UniProt:P35563 was 7.89

The origin of these recorded values is ChEMBL document CHEMBL1136924.
